experiment notes: chemical genetic growth profiling, strain panel (AID 1159580);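 also: tested at 20 µM; growth read once vehicle control cultures reached saturation at 30 °C; 1 = growth at the plate median or of vehicle wells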
run conditions: S. cerevisiae deletion strains, growth OD, locus YMR307W, strain GAS1, hits give low values
Among all 5,500 compounds or so, about 2,000 (36%) were called active. Another 18% or so got no clear call; they are omitted. Some of the results follow. *1 amine or outer side, *2 acyl side, *3 side chain or, on linkers, in order; H or OH if unused. Where a SMILES comes first, the peptide text is derived from it. Bridges are numbered along the chain shown (N, C = ends). [ ]: non-standard residue; d: D form. The star is where a group is joined. ξ: configuration not given here. ΔAla(E,3-NHCONH2) = NC(=O)N/C=C(/N)C(=O)O; X2 = NC1=NCCC(C(N[*:1])C(=O)[*:2])N1; ξβ3hOrn = NCCCC(N)CC(=O)*; Dap = NC[CH](N)C(=O)O
normalized growth vs 1: less than gives TRUE; not less than gives FALSE.

I'd appreciate it if you could check whether NCCCC(N)CC(=O)NCC1NC(=O)C(CO)NC(=O)C(N)CNC(=O)C(C2CCN=C(N)N2)NC(=O)/C(=C\NC(N)=O)NC1=O (stereo not drawn) (H-[Dap]S[Dap](ξβ3hOrn)[ΔAla(E,3-NHCONH2)][X2]; lactam 1-C; configuration not given here) has normalized growth smaller than 1.
FALSE

Please indicate whether the reported normalized growth of NCC1OC(OC2C(CO)OC(OC3C(O)C(N)CC(N)C3OC3OC(CO)C(O)CC3N)C2O)C(N)C(O)C1OC1OC(CO)C(O)C(O)C1O (stereo not given) is strictly below 1.
FALSE

Bench note: check whether OC(c1cc(C(F)(F)F)nc2c(C(F)(F)F)cccc12)C1CCCCN1 (stereo not given) shows normalized growth below 1
TRUE

Report whether reported normalized growth is lower than 1 (strictly) for CC1(C)C(=O)[C@@H]2O[C@@H]2[C@@]2(C)C1CC(=O)[C@]1(C)C2CC[C@@]2(C)[C@H](c3ccoc3)OC(=O)[C@H]3O[C@]321 (stereo not given in full)
FALSE

# check: normalized growth < 1 for `O=C(O)c1cc(=O)c2cccc(O)c2[nH]1`
FALSE

* * *

experiment notes: chemical genetic growth profiling, strain panel (AID 1159580);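 also: tested at 20 µM; growth read once vehicle control cultures reached saturation at 30 °C; 1 = growth at the plate median or of vehicle wells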
run conditions: S. cerevisiae deletion strains, growth OD, locus YKL085W, strain MDH1, hits give low values
Screen size: about 5,500 compounds; about 2,000 (36%) were called active. Another 18% or so got no clear call; they are omitted. The list shows a part of the results.
For each record, write down the corresponding normalized growth.
Could you respond with only the numeric value?

Please give measured normalized growth of the following entry: CCCCCCCCCCCCCCCCCCOCC(O)CO (stereo not given)
0.986

Dear colleague, please send me the reported normalized growth for `CC(=O)Oc1cccc2c1C(=O)c1c(OC(C)=O)cc(C(=O)O)cc1C2=O` when you can.
1

Give the reported normalized growth for this compound. `CC(=O)Oc1cccc(C(=O)O)c1OC(C)=O`
1.07

Query normalized growth for C1CCC(C(CC2CCCCN2)C2CCCCC2)CC1 (stereo not given)
0.996

Give the reported value of normalized growth for this record: `COc1cnc(NS(=O)(=O)c2ccc(N)cc2)nc1`
0.971

Output normalized growth of CC1(C)C(=O)[C@@H]2O[C@@H]2[C@@]2(C)C1CC(=O)[C@]1(C)C2CC[C@@]2(C)[C@H](c3ccoc3)OC(=O)[C@H]3O[C@]321 (stereo not given in full)
0.981

Identify the reported normalized growth for the following entry. `COc1c2ccoc2cc2oc(C)cc(=O)c12`
0.974

Return value of normalized growth for input C#CC1(O)CCC2C3CCC4=CC(=O)CCC4(C)C3CCC21C (stereo not given) , no commentary.
0.99

Return the recorded normalized growth value; entry: O=c1[nH]cnc2c1ncn2C1O[C@H](CO)[C@@H](O)[C@H]1O (stereo not given in full)
0.998

Assign normalized growth to the following record: `COc1cc(NS(=O)(=O)c2ccc(N)cc2)ncn1`
0.991

Provide measured normalized growth value, entry: `Cc1onc(-c2ccccc2Cl)c1C(=O)N[C@@H]1C(=O)N2[C@@H]1SC(C)(C)[C@@H]2C(=O)O`
1.02

Look up normalized growth of `NC(N)=NC(N)=Nc1ccccc1` and report it.
1

Name the recorded normalized growth of the compound listed here: CC1=CC2C(C(C)C)CCC(C)(O)C2CC1 (stereo not given)
0.979

Determine its reported normalized growth: `CC1(C)S[C@@H]2[C@H](NC(=O)Cc3ccccc3)C(=O)N2[C@H]1C(=O)O`
1

Output measured normalized growth for this item: OC(c1cc(C(F)(F)F)nc2c(C(F)(F)F)cccc12)C1CCCCN1 (stereo not given)
0.989
